Answer each item with its documented EC50.
biological target: UniProt P48067; assay: Inhibition of [3H]glycine uptake at GlyT1
Answers are plain numbers, in nM.

Could you report EC50 for every entry in the following list?
1. O=C1NCC(c2ccccc2)C12CCN(C1(c3ccc(OC(F)(F)F)cc3)CCCCC1)CC2 (racemic)
2. O=C1NCC(c2ccccc2)C12CCN(C1(c3ccc(C(F)(F)F)cc3)CCCCC1)CC2 (single isomer, unassigned; diastereomer 1)
3. COc1cccc(C2(N3CCC4(CC3)C(=O)NCC4c3ccccc3)CCCCC2)c1 (single isomer, unassigned; diastereomer 2)
4. CCCC1CNC(=O)C12CCN(C1(c3cccs3)CCCCC1)CC2 (racemic)
5. O=C1NCC(c2ccc(C(F)(F)F)cc2)C12CCN(C1(c3ccc(F)cc3)CCCCC1)CC2 (racemic)
6. CC(C)C1(N2CCC3(CC2)C(=O)NCC3c2ccc(F)cc2)CCCCC1 (racemic)

Result ::
4560
1210
26200
229
433
787

Consider the following items and state reported EC50 for each.
1. O=C1NCC(c2ccccc2)C12CCN(C1(c3cccc(F)c3)CCCCC1)CC2 (single isomer, unassigned; diastereomer 1)
2. CC(C)C1(N2CCC3(CC2)C(=O)NCC3c2ccccc2)CCCCC1 (racemic)

Result ::
1. 423
2. 970

Quick one: give me EC50 for each item below, same order please.
1. Cc1ccc(C2CNC(=O)C23CCN(C2(c4ccccc4)CCCCC2)CC3)cc1 (racemic)
2. O=C1NCC(c2ccc(F)cc2)C12CCN(C1(c3ccsc3)CCCCC1)CC2 (single isomer, unassigned; diastereomer 1)
3. CCCC1CNC(=O)C12CCN(C1(c3ccc(C)s3)CCCCC1)CC2 (racemic)
4. O=C1NCC(c2ccccc2)C12CCN(C1(c3ccsc3)CCCCC1)CC2 (racemic)

Result ::
[139, 213, 113, 682]

Query :: Which EC50 is listed for Cc1ccc(C2(N3CCC4(CC3)C(=O)NCC4c3ccc(F)cc3)CCCCC2)cc1 (single isomer, unassigned; diastereomer 2) ?
Result :: 419

====

Target: Sodium- and chloride-dependent glycine transporter 1 (Homo sapiens, UniProt P48067)
Sequence (P48067 whole entry): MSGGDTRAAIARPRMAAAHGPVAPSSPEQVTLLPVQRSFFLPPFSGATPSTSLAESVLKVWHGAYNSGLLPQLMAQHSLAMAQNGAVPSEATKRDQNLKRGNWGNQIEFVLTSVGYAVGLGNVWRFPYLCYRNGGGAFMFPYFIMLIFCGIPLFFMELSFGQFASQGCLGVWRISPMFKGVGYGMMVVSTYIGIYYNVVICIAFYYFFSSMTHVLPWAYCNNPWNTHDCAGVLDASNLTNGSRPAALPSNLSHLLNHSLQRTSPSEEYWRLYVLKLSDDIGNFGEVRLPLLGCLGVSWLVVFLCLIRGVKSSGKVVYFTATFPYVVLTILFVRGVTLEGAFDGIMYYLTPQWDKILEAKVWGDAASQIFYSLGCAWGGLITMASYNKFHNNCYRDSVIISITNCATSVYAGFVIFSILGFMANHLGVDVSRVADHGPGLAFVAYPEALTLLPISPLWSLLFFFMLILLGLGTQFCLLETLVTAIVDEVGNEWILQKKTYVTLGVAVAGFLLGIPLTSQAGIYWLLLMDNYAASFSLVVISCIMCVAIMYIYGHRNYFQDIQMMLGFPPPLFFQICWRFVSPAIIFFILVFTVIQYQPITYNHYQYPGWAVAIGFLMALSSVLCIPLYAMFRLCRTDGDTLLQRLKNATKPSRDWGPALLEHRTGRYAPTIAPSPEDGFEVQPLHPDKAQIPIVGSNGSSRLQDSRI
Assay: Inhibition of [3H]glycine uptake at GlyT1
parameter: pEC50
Give bare numbers, as −log10 of the molar value.

Worked cases, answers included:
molecule: O=C1NCC(c2ccc(F)cc2)C12CCN(C1(c3cccc(OC(F)(F)F)c3)CCCCC1)CC2 (single isomer, unassigned; diastereomer 2)
parameter: pEC50
recorded.result: 4.67

molecule: Cl.O=C1NCC(c2ccc(F)cc2)C12CCN(C1(c3ccsc3)CCCCC1)CC2 (racemic)
parameter: pEC50
recorded.result: 7.00

Query :: // map O=C1NCC(c2ccccc2)C12CCN(C1(c3cccc(F)c3)CCCCC1)CC2 (single isomer, unassigned; diastereomer 2) to recorded pEC50 (system: Sodium- and chloride-dependent glycine transporter 1 (Homo sapiens, UniProt P48067))
Result :: 6.16

====

experiment: in vitro; details: mouse, microsomes, Max Achievable Bioavailability
Description: Maximum achievable bioavailability in mouse microsome
Assignment: determine reported Fh for the given compounds.
Numbers only, in %.

compound: O=C1NCC(c2ccc(F)cc2)C12CCN(C1(c3ccc(F)cc3)CCCCC1)CC2 (stereo in doubt)
unit.descriptor: %
recorded.result: 98

compound: Cl.O=C1NCC(c2ccc(F)cc2)C12CCN(C1(c3ccsc3)CCCCC1)CC2 (racemic)
unit.descriptor: %
recorded.result: 45

compound: Cl.O=C1NCC(c2ccc(F)cc2)C12CCN(C1(c3cccs3)CCCCC1)CC2 (racemic)
unit.descriptor: %
recorded.result: 28

compound: F.O=C1NCC(c2ccc(F)cc2)C12CCN(C1(c3ccc(F)cc3)CCCCC1)CC2 (single isomer, unassigned; diastereomer 1)
unit.descriptor: %
recorded.result: 46

compound: CCCC1CNC(=O)C12CCN(C1(c3ccc(F)cc3)CCCCC1)CC2 (racemic)
unit.descriptor: %
recorded.result: 57

Query :: Form field: reported Fh of `O=C1NCN(c2ccccc2)C12CCN(C1(c3ccccc3)CCCCC1)CC2`
Result :: 6

====

test: in vitro; details: human, microsomes, Max Achievable Bioavailability
Description: Maximum achievable bioavailability in human microsome
Mark each entry MET if its Fh sits below 60%, and NOT MET for all others.

compound: Cl.O=C1NCC(c2ccc(F)cc2)C12CCN(C1(c3ccsc3)CCCCC1)CC2 (racemic)
class.label: NOT MET
--
compound: CCCC1CNC(=O)C12CCN(C1(c3ccc(F)cc3)CCCCC1)CC2 (racemic)
class.label: MET
--
compound: O=C1NCC(c2ccc(F)cc2)C12CCN(C1(c3ccc(F)cc3)CCCCC1)CC2 (stereo in doubt)
class.label: NOT MET

Query :: In plain terms, does `O=C1NCN(c2ccccc2)C12CCN(C1(c3ccccc3)CCCCC1)CC2` come in under 60% for Fh?
Result :: MET

Query :: Hello, is Fh of the following compound strictly smaller than 60%? F.O=C1NCC(c2ccc(F)cc2)C12CCN(C1(c3ccc(F)cc3)CCCCC1)CC2 (single isomer, unassigned; diastereomer 1)
Result :: NOT MET

Query :: Is Fh strictly under 60% for the entry Cl.O=C1NCC(c2ccc(F)cc2)C12CCN(C1(c3cccs3)CCCCC1)CC2 (racemic) ?
Result :: NOT MET

====

target: Voltage-gated inwardly rectifying potassium channel KCNH2 (Homo sapiens, UniProt Q12809)
Sequence (Q12809 whole entry): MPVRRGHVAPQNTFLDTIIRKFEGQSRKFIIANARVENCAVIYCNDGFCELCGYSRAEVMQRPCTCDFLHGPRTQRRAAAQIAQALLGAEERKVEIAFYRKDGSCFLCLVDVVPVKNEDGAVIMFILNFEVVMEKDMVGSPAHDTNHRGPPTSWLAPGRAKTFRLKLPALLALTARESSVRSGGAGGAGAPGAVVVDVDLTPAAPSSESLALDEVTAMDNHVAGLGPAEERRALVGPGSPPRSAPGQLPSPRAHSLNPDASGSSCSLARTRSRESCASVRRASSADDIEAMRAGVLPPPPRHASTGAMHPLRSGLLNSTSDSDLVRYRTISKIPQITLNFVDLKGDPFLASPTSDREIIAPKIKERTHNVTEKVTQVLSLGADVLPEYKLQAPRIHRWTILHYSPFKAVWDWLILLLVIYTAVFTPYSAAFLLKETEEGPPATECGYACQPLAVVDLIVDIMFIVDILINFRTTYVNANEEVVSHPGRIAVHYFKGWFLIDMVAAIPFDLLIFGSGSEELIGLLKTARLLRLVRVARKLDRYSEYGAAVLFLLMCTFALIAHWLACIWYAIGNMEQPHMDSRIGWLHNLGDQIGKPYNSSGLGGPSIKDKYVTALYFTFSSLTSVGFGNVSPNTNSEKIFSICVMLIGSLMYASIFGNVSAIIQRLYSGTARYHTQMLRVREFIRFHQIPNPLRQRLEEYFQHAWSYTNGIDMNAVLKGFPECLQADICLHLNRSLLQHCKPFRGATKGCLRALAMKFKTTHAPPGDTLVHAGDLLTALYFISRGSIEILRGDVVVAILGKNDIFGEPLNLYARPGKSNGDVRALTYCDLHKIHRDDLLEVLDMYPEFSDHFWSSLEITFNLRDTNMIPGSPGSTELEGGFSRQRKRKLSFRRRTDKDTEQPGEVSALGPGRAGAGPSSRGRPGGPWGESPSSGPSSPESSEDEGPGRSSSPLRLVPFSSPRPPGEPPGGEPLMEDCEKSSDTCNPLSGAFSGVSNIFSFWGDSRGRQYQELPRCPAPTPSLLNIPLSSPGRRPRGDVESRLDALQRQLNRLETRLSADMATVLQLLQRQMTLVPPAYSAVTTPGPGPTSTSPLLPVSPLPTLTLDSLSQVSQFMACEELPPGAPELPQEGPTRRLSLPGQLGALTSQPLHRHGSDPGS
parameter: IC50

Query :: Lab note: need IC50 with Voltage-gated inwardly rectifying potassium channel KCNH2 (Homo sapiens, UniProt Q12809) for entry O=C1NCC(c2ccccc2)C12CCN(C1(c3ccccc3)CCCOC1)CC2 (stereo unspecified) , please look it up.
Result :: > 11 µM

====

experiment: Volume of distribution in mouse; type: ADME, organism-based; conditions: in vivo, read-out: Vss
parameter: Vd (L/kg)
Numbers only, in L/kg.

Query :: Form field: reported Vd of O=C1NCC(c2ccc(F)cc2)C12CCN(C1(c3ccc(F)cc3)CCCCC1)CC2 (stereo in doubt)
Result :: 7.6

====

Record form. Attribute: pEC50. Fill in for each entry.
target: Sodium- and chloride-dependent glycine transporter 1 (Homo sapiens, UniProt P48067); assay: Inhibition of [3H]glycine uptake at GlyT1
Numbers only, as −log10 of the molar value.

Example results:
compound: Cc1cccc(C2(N3CCC4(CC3)C(=O)NCC4c3ccc(F)cc3)CCCCC2)c1 (single isomer, unassigned; diastereomer 2)
recorded.result: 6.02

compound: Cc1ccc(C2(N3CCC4(CC3)C(=O)NCC4c3ccccc3)CCCCC2)cc1 (stereo in doubt)
recorded.result: 6.55

compound: O=C1NCC(c2ccc(F)cc2)C12CCN(C1(c3cccc(OC(F)(F)F)c3)CCCCC1)CC2 (stereo in doubt)
recorded.result: 4.78

compound: O=C1NCC(c2ccccc2)C12CCN(C1(C3CCCC3)CCCCC1)CC2 (racemic)
recorded.result: 5.20

compound: O=C1NCC(c2ccc(F)cc2)C12CCN(C1(c3ccsc3)CCCCC1)CC2 (stereo in doubt)
recorded.result: 7.00

compound: Cc1cccc(C2(N3CCC4(CC3)C(=O)NCC4c3ccc(F)cc3)CCCCC2)c1 (racemic)
recorded.result: 6.25

compound: O=C1NCC(c2ccccc2)C12CCN(C1(C3CCCCC3)CCCCC1)CC2 (racemic)
recorded.result: 4.82

Now for the compound whose pEC50 we want.
Query :: Query the reported pEC50 for Sodium- and chloride-dependent glycine transporter 1 (Homo sapiens, UniProt P48067); item: Cc1ccc(C2(N3CCC4(CC3)C(=O)NCC4c3ccc(F)cc3)CCCCC2)cc1 (single isomer, unassigned; diastereomer 1)
Result :: 5.83

The origin of these recorded values is ChEMBL document CHEMBL1145308.
